Origin of the recorded values: paper PMC10776994

- studyTarget: T1, PP1α_(7-330) Y134A (UniProt P62136 7-330, Y134A)
- T1 construct: Protein phosphatase 1 alpha catalytic subunit (PP1α), residues 7-330; also called PP1_(Y134A); PP1_(7-330) Y134A
- T1 sequence (P62136 7-330 Y134A): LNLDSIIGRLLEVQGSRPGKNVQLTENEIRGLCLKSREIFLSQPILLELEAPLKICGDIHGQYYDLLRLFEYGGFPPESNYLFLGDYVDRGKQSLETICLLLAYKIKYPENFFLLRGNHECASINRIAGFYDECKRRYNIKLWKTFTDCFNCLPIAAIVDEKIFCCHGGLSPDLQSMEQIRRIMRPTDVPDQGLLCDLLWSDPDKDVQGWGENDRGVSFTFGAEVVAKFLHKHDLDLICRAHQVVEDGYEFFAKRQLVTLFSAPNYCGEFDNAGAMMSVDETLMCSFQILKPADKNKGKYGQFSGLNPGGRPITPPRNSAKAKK
- experimentNotes: SPR; His6-PP1 constructs or SDS22_(56-360):PP1α_(7-330) captured on a Ni-NTA chip (NiHC200M), I3 and variants injected; 25 °C; 20 mM Tris pH 8.0, 500 mM NaCl, 0.5 mM TCEP, 0.05% Tween-20; one-to-one one-state or two-state fit
- cond: both partners purified
parameter: Kd

I am curious: what Kd value has been reported for SLTIKLRKRKPEKKVEWTSDTVDNEHMGRRSSKCCCIYEKPR (domain or fragment, human, UniProt O60927 27-68, looked up, source: E. coli BL21 (DE3), purified (Ni-NTA, TEV, heat 95 °C, SEC); not shown: His6, N-terminal, cleaved; MBP, N-terminal, cleaved) [I3_(27-68)] ?
9 nM
